- procedure.summary: Partition coefficient (logP)
- Format: physicochemical
- conditions.used: octanol/water
Quick rule for you: logP at 4 or higher means T, lower means F.

c1ccc(OCc2nc3ccccc3[nH]2)cc1 :: F
CCCCCCCCc1nc2ccccc2[nH]1 :: T
c1ccc2c3c(ccc2c1)=NCN=3 :: F
Cc1ccc(OCc2nc3ccccc3[nH]2)cc1 :: F

Exercise: Kindly determine if logP recorded for `CCOc1ccc2[nH]c(C)nc2c1` is above or exactly 4.
Key: F

Exercise: Kindly determine if logP recorded for `Clc1cccc(Cc2nc3ccccc3[nH]2)c1` is above or exactly 4.
Key: T

Exercise: Kindly determine if logP recorded for `CC(C)c1nc2ccccc2[nH]1` is above or exactly 4.
Key: F

Exercise: Kindly determine if logP recorded for `CCOc1ccc2[nH]cnc2c1` is above or exactly 4.
Key: F

Exercise: Kindly determine if logP recorded for `CCCCCCCCCCCCCc1nc2ccccc2[nH]1` is above or exactly 4.
Key: T
